In this section we review reported Cmax values for a set of compounds.
- assay-text: Pharmacokinetics in rat plasma after oral administration of MO and SMO extract (UPLC-MS/MS)
- Type: in vivo, Sprague-Dawley (SD) rats
- measurement-setup: male, Sprague-Dawley, rat, plasma, po, 40 g/kg, oral SMO extract 40 g/kg, n = 6
# unit: ng/mL | format: bare number

COc1c(C)c(O)cc2c1C(=O)c1ccccc1C2=O 509
Cc1c(O)cc2c(c1O)C(=O)c1ccccc1C2=O 50.2

The compound O=C(O)C1=CO[C@@H](O[C@@H]2O[C@H](CO)[C@@H](O)[C@H](O)[C@H]2O)[C@H]2[C@@H]1C=C[C@]2(O)CO showed Cmax equal to 23.3

###

- assay-text: Pharmacokinetics in rat plasma after oral administration of MO and SMO extract (UPLC-MS/MS)
- Type: in vivo, Sprague-Dawley (SD) rats
- measurement-setup: male, Sprague-Dawley, rat, plasma, po, 40 g/kg, oral MO extract 40 g/kg, n = 6
In this section we review reported Cmax values for a set of molecules.
# unit: ng/mL | format: bare number

Illustrative cases are given below, each with its answer.
molecule	Cmax, ng/mL
O=C(O)C1=CO[C@@H](O[C@@H]2O[C@H](CO)[C@@H](O)[C@H](O)[C@H]2O)[C@H]2[C@@H]1C=C[C@]2(O)CO [Monotropein, monotropein]	23.3
COc1c(C)c(O)cc2c1C(=O)c1ccccc1C2=O [Rubiadin 1-methyl ether, rubiadin 1-methyl ether]	432

Shift focus to the following entry.
The molecule Cc1c(O)cc2c(c1O)C(=O)c1ccccc1C2=O [Rubiadin, rubiadin] showed Cmax equal to 46.7
